I'd be grateful if you could share measured growth for these entries.
Tested on: NCI-H460 lung
assayInfo: NCI-60 one-dose screen, 48 h (100 = growth as untreated, 0 = no growth, -100 = all killed)
conditionInfo: 10 µM unless noted
About 83,000 compounds went through this panel and 20% of them were active in at least one assay; those are over-represented in the sample as a whole.
One number for each entry, in %.

Dear colleague, could you send me growth for each of the items below? Thanks.
1. COC(=O)[C@@H](C)C[C@H](Cc1ccccc1)NC(=O)c1nc([C@@H](C[C@H](C(C)C)N(C)C(=O)[C@@H](NC(=O)[C@H]2CCCCN2C)C(C)C)OC(C)=O)sc1C(C)C
2. C1CCC([PH+](C2CCCCC2)C2CCCCC2[PH+](C2CCCCC2)C2CCCCC2)CC1.[Au].[CH-]1CCCCC1CC1CCCC[N-]1 (centres undefined)
3. CC12CCC3C(CCC4=CC(=O)CCC43CF)C1CCC2=O (centres undefined)
4. Clc1ccc2nnnn2n1
5. C[C@@H]1CCC2[C@@H](C)[C@H](OC(=O)CCC(=O)NCCNC(=O)Cc3cc(=O)oc4cc(N(C)C)ccc34)O[C@@H]3O[C@]4(C)CC[C@@H]1C23OO4 (some centres undefined)
6. CCc1ccccc1[C@@H]1C[C@]2(C)CCO[C@@H]2OO1
7. c1ccc(COc2ccc3[nH]cc(CCN(Cc4ccccc4)Cc4ccccc4)c3c2)cc1
8. CC1CCCC(C[N+](C)(C)C)C1=O (centres undefined)

1: 5.54; 2: -56.4; 3: 109; 4: 20.7; 5: 39.4; 6: 107; 7: 91.6; 8: 117

====

System: HOP-62 NSCLC
assayInfo: NCI-60 one-dose screen, 48 h
conditionInfo: 10 µM unless noted
About 83,000 compounds went through this panel and 20% of them were active in at least one assay; those are over-represented in the sample as a whole. The source made the active and inactive calls. The calls were made as follows: active = growth percent below 10; inactive = the rest.
Entry note: the call must match one of active, inactive

The following compounds have reported results that may help.
COC(=O)[C@@H](C[C@H](Cc1ccccc1)NC(=O)c1csc([C@@H](C[C@H](C(C)C)N(C)C(=O)[C@@H](NC(=O)[C@H]2CCCCN2C)C(C)C)OC(C)=O)n1)NC(=O)OCc1ccccc1 | inactive
COc1ccc(S(=O)(=O)Nc2c(/C=C\c3cc(OC)c(OC)c(OC)c3)ccc(OC)c2O)cc1OC | inactive
C#Cc1ccc2c(c1)C(c1ccccc1)=NCC(=O)N2C | inactive
COC(=O)C12CC(NC(=O)c3csc([C@@H](C[C@H](C(C)C)N(C)C(=O)[C@@H](NC(=O)[C@H]4CCCCN4C)C4CC4)OC(C)=O)n3)(C1)C2 | active
CC[C@H](C)[C@H](NC(=O)[C@H]1CCCCN1C)C(=O)N(C)[C@H](C[C@@H](OC(C)=O)c1nc(C(=O)NC23CC(C(=O)OC)(C2)C3)cs1)C(C)C | inactive

Now consider a different compound.
Call for entry COC(=O)[C@@H](C)C[C@H](Cc1ccccc1)NC(=O)c1csc([C@@H](C[C@H](C(C)C)N(C)C(=O)[C@H](C)NC(=O)[C@H]2CCCN2C)OC(C)=O)n1 :
inactive

====

Test system: SF-295 CNS
assayInfo: NCI-60 one-dose screen, 48 h
conditionInfo: 10 µM unless noted
About 83,000 compounds went through this panel and 20% of them were active in at least one assay; those are over-represented in the sample as a whole. The source made the active and inactive calls. The calls were made as follows: active = growth percent below 10; inactive = the rest.
Entry note: the call must match one of Y = active, N = inactive

The following compounds have reported results that may help.
COC(=O)[C@@H](C)C[C@H](Cc1ccc(F)cc1)NC(=O)c1csc([C@@H](C[C@H](C(C)C)N(C)C(=O)[C@@H](NC(=O)[C@H]2CCCCN2C)C(C)C)OC(C)=O)n1 | Y
COc1cc(C=C2c3ccccc3C(=O)c3ccccc32)ccc1OCCCCOc1cc2c(cc1OC)C(=O)N1CCCC1C=N2 (stereo unspecified) | Y
O=C(O)c1c(Cl)n(Cc2ccc(O)cc2)c2ccc(O)cc12 | N
CCCC[C@H](NC(=O)[C@H]1CCCCN1C)C(=O)N(C)[C@H](C[C@@H](OC(C)=O)c1nc(C(=O)N[C@@H](Cc2ccccc2)C[C@H](C)C(=O)OCC)cs1)C(C)C | N

Call for entry COC(=O)[C@@H](C)C[C@H](Cc1ccccc1)NC(=O)c1nc([C@@H](C[C@H](C(C)C)N(C)C(=O)[C@@H](NC(=O)[C@H]2CC(=O)CCN2C)C(C)C)OC(C)=O)sc1C(C)C :
Y

Call for entry COC(=O)[C@@H](C)C[C@H](Cc1ccccc1)NC(=O)c1csc([C@@H](C[C@H](C(C)C)N(C)C(=O)[C@@H](NC(=O)[C@H]2CCCCN2C)C2CCCCC2)OC(C)=O)n1 :
Y

====

Test system: OVCAR-3 ovarian
assayInfo: NCI-60 one-dose screen, 48 h
conditionInfo: 10 µM unless noted
About 83,000 compounds went through this panel and 20% of them were active in at least one assay; those are over-represented in the sample as a whole. Activity calls are given as the source filed them. The calls were made as follows: active = growth percent below 10; inactive = the rest.
Entry note: the call must match one of active, inactive

Call for entry ClCCN(CCCl)c1ccc(-n2cnc3c(Cl)ncnc32)cc1 :
active

Call for entry CC1=C(CN)C2=C(C)C3(CC3)[C@@](C)(O)C(=O)C2=C1 :
inactive

Call for entry O=[N+]([O-])c1cnc[nH]1 :
inactive

Call for entry O=C(CC1(O)C(=O)Nc2ccccc21)c1ccc(C(=O)NCC2CCC3(CC2)OOC2(CCCCC2)OO3)cc1 (stereo not given) :
inactive

Call for entry CCCCCCCCOC(=O)CCN1CC1 :
inactive

====

Test system: SNB-75 CNS
assayInfo: NCI-60 one-dose screen, 48 h (100 = growth as untreated, 0 = no growth, -100 = all killed)
conditionInfo: 10 µM unless noted
About 83,000 compounds went through this panel and 20% of them were active in at least one assay; those are over-represented in the sample as a whole.
Recorded growth determines the group label, using category 1 = under 20%, category 2 = from 20% up to 80%, category 3 = 80% and over

The following molecules have reported results that may help.
C[N+](C)(C)Cc1cc(Cl)ccc1O | category 3
O=C(CC1(O)C(=O)N(Cc2ccccc2)c2ccc(Cl)cc21)c1ccc(C(=O)NCC2CCC3(CC2)OOC2(CCCCC2)OO3)cc1 (configuration not stated) | category 1

State the band of CC[C@H](C)[C@@H]1OC(=O)C(C)(C)[C@H](O)[C@H](Cc2ccccc2)OC(=O)[C@H](C(C)C)OC(=O)[C@@H](NC(=O)c2cccc(NC=O)c2O)[C@@H](C)OC1=O
category 2

State the band of CC(=O)c1ccc(C(=O)NCC2CCC3(CC2)OOC2(CCCCC2)OO3)cc1
category 3

State the band of Cc1ccc(C(Cc2ccccc2)NCCO)cc1 (configuration not stated)
category 3

State the band of O=C(CCl)c1ccc([N+](=O)[O-])o1
category 2

State the band of COc1ccc(N(CC(=O)NCCC[Te]c2ccccc2)C(=O)CCSC2=C(C)C(=O)c3ccccc3C2=O)cc1
category 1

State the band of Cc1ccccc1NC(=NCCCN1CC1)Nc1ccccc1C
category 3

State the band of CCn1nccc1NC(=O)C(=O)c1cn(Cc2ccc(F)cc2)c2cccc(OC)c12
category 3

State the band of CC(C)OC(=O)[C@H](C)NP(=O)(Oc1ccccc1)C1CCCN(O)C1=O (some centres not stated)
category 3

====

System: EKVX NSCLC
assayInfo: NCI-60 one-dose screen, 48 h (100 = growth as untreated, 0 = no growth, -100 = all killed)
conditionInfo: 10 µM unless noted
About 83,000 compounds went through this panel and 20% of them were active in at least one assay; those are over-represented in the sample as a whole. The source made the active and inactive calls. The calls were made as follows: active = growth percent below 10; inactive = the rest.
I'd be grateful if you could share measured growth for these entries.

C1CCC2(CC1)OOCNCOO2 | 99% (inactive)
Nc1ccc2c(c1)Cc1cc(Br)ccc1-2 | 64.2% (inactive)
COC1OC(CO)C(O)C(O)[CH]1[Hg][O]C(C)=O (stereo not given) | 111% (inactive)

Dear colleague, could you send me growth for each of the items below? Thanks.
1. CC(=O)O[C@H](C[C@H](C(C)C)N(C)C(=O)[C@@H](NC(=O)[C@H]1CCCCN1C)C(C)C)c1cccc(C(=O)N[C@@H](Cc2ccccc2)C[C@H](C)C(=O)O)n1
2. O=C1OCC2=C1C(c1ccccc1)c1cc3c(cc1N2)OCO3 (stereo not given)

["37.3% (inactive)", "48% (inactive)"]

====

System: PC-3 prostate
assayInfo: NCI-60 one-dose screen, 48 h (100 = growth as untreated, 0 = no growth, -100 = all killed)
conditionInfo: 10 µM unless noted
About 83,000 compounds went through this panel and 20% of them were active in at least one assay; those are over-represented in the sample as a whole.
metricName: growth (%)
Give bare numbers, in %.

Consider the following illustrative entries.
CC(=O)[O][Hg][c]1c(N)c(C)cc(C)c1F | 51.9
Cc1c(C)c([N+](=O)[O-])c(C)c(C)c1[N+](=O)[O-] | 105
COc1cc2c(c(OC)c1OC)-c1ccc([O-])c(=O)cc1[C@@H](NC(C)=O)CC2.COc1cc2c(c(OC)c1OC)-c1ccc([O-])c(=O)cc1[C@@H](NC(C)=O)CC2.[Cu+2] | 35.1
Fc1ccc2c(c1)c(-c1nc(-c3c[nH]c4ncccc34)cs1)cn2CCN1CCOCC1 | 23.3
CC(=O)O[C@H]1CC[C@H]2[C@@H]3CC=C4c5nc(-c6ccccc6)sc5CC[C@]4(C)[C@H]3CC[C@]12C | 72.3
O=C(O)C(Cl)(Cl)C(F)(F)F | 102
O=C1C2CCC1C(N1CCCC1)CC2 (configuration not stated) | 93.1
C[C@@H]1O[C@@H](O[C@H]2C[C@@H](O)[C@]3(CO)C4C(CC[C@]3(O)C2)[C@@]2(O)CC[C@H](C3=CC(=O)OC3)[C@@]2(C)C[C@H]4O)[C@H](O)[C@H](O)[C@H]1O (some centres not stated) | 6.86

Dear colleague, could you send me growth for each of the items below? Thanks.
1. C[C@@]1(CCCCCCCCCc2ccc(O)cc2)C[C@]2(C)OC(=O)C[C@@H]2OO1
2. CC(C)[C@]12O[C@H]1[C@@H]1O[C@]13[C@]1(O[C@H]1C[C@H]1c4c(C(=O)c5ccccc5)oc(OC(=O)c5ccccc5)c4CC[C@@]13C)[C@@H]2O
3. Clc1cc(N2CC2)nc(N2CC2)n1
4. CC(=O)Nc1nc2c(s1)CC[C@@]1(C)C2=CC[C@H]2[C@@H]3CC[C@H](O)[C@@]3(C)CC[C@@H]21
5. COc1ccc(C(O)(C(=O)O)c2ccc(OC)cc2)cc1

61.7
-0.741
65.2
67.8
77.8

Dear colleague, could you send me growth for each of the items below? Thanks.
1. C1CCC([PH+](C2CCCCC2)C2CCCCC2[PH+](C2CCCCC2)C2CCCCC2)CC1.[Au].[CH-]1CCCCC1CC1CCCC[N-]1 (configuration not stated)
2. CCCCCCCC(=O)OCC(=O)[C@]1(O)Cc2c(O)c3c(c(O)c2[C@@H](OC2CC(N)C(O)C(C)O2)C1)C(=O)c1c(OC)cccc1C3=O (some centres not stated)
3. CC[C@]12C=CCN3CC[C@]4(C(=C(C(=O)OC)C1)Nc1cc(OC)c(OC(C)=O)cc14)[C@@H]32
4. COc1ccc(/C=C\c2cc(OC)c(OC)c(OC)c2)c(NS(=O)(=O)c2ccc(F)cc2)c1O

1. -22.2
2. -100
3. 22.5
4. 31.3

These measurements were taken from PubChem BioAssay (NCI).
